# experiment: H69AR cell proliferation blockers – human, duplicate replicates, primary screen (AID 580);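 further: 100% = mean luminescence of untreated wells and 0% = no signal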
# appliedConditions: H69AR lung tumor cells viability, ATP luminescence, 72 h; at 10 µM; stronger effect = lower value
Peptide text beside a SMILES is read from it.
endpoint: viability (%)
I only need the number, in %, no unit after it.

Example entries and their recorded answers appear below.
>>> df
                                   compound   endpoint  outputunit  observedvalue
0  COc1ccc(CCn2c(O)c(C=NCc3cccnc3)c(=O)[nH]c2=O)cc1OC  viability           %           95.4
1         Cc1ccc(O)c(CN2CCN(c3ccccc3)CC2)c1  viability           %           85.5
2  CN(C)c1cc(N)c2c(n1)CCC2 (tested in a mixture with another compound)  viability           %           86.1
3     CN1CCC(OC(=O)C2c3ccccc3Oc3ccccc32)CC1  viability           %           86.4
4  Cc1nn(Cc2ccccc2Cl)c(Cl)c1C(=O)OCC(=O)NCc1ccco1  viability           %           85.6
5  CC(C)C[C@H](NC(=O)[C@@H]1CCCN1C(=O)[C@@H](N)Cc1ccc(O)cc1)C(=O)NCC(N)=O (H-YPLG-NH2)  viability           %           97.6
6  COc1cc(C2NCc3ccccc3-n3cccc32)ccc1O (stereo not drawn)  viability           %            101
7            O=C(O)CCCc1ccc(N(CCCl)CCCl)cc1  viability           %           81.8

Query :: Give the measured viability for CC(C)CC12CN3CCN(CC(C3)/C1=N/O)C2
Result :: 96.4

Query :: For O=C(CN1C2CCC1CC(O)(c1cccnc1)C2)Nc1ccc2c(c1)OCO2 (stereo not drawn) , write its viability.
Result :: 91.3

Query :: Tell us which viability value is on record for C[N+]1(C)CCc2cc3c(cc2[C@H]1[C@@H]1OC(=O)c2c1ccc1c2OCO1)OCO3
Result :: 113

Query :: Consider the compound CCCCn1c(O)c(C(C)=NC(Cc2c[nH]c3ccccc23)C(=O)OC)c(=O)[nH]c1=O (stereo not drawn) . State its measured viability.
Result :: 96.5

* * *

# testedTarget: Pantothenate synthetase (Mycobacterium tuberculosis (strain ATCC 25618 / H37Rv))
# experiment: Coupled enzyme confirmation of inhibitors against recombinant Mtb PanC (AID 375);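 further: 0% = full reaction with vehicle and 100% = no enzyme background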
# appliedConditions: coupled enzyme assay; at 10 µM, stronger effect = higher value
Criterion: inhibition meeting or surpassing 1%. Met: class 1. Not met: class 0.

In [3]: df
Out[3]:
                                   molecule  discretelabel
0  COc1cccc(-n2nnc3c(=O)n(Cc4cccc(F)c4)cnc32)c1        class 1
1        O=C(CN1C(=O)CCSc2ccccc21)Nc1ccccc1        class 0
2  CCCn1c(O)c(CN2CCCC(C)C2)c(C)c(C#N)c1=O (configuration not stated)        class 1
3  CCC1Oc2ccc(C)cc2N(CC(=O)NCCCN2CCCCC2CC)C1=O (configuration not stated)        class 1
4  NC1=NC(c2ccc(Br)cc2)n2c(nc3ccccc32)N1 (configuration not stated)        class 0
5  O=C(Cn1nc(C(F)(F)F)c2c1CCCC2)NCCN1CCOCC1        class 1
6  COCCNC(=O)C(c1ccc(C)o1)N(Cc1cccs1)C(=O)c1snc(C(N)=O)c1N (configuration not stated)        class 1
7                   CCOc1ccccc1OCCCCN1CCCC1        class 1
8                O=C1CCCN1Cc1ncnn1-c1ccccc1        class 1
9  CCCCNC(=O)CSc1nc2ccc(N3CCOCC3)cc2c(=O)n1CCc1ccccc1        class 1

Query :: inhibition >= 1% for COc1ccc(C(=O)NCCCCCC(=O)O)cc1OC ?
Result :: class 0

* * *

# testedTarget: Pantothenate synthetase (Mycobacterium tuberculosis (strain ATCC 25618 / H37Rv))
# experiment: Coupled enzyme confirmation of inhibitors against recombinant Mtb PanC (AID 375);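 further: 0% = full reaction with vehicle and 100% = no enzyme background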
# appliedConditions: coupled enzyme assay; at 10 µM, stronger effect = higher value
Measured inhibition by item
Form entry: value (%) — number only.

                                   compound  observedvalue
0  Cc1occc1C(=O)Nc1ccc(S(=O)(=O)N2CCN(C)CC2)cc1              0
1  Cc1cc(C)n(CCCNC(=O)c2ccc(S(=O)(=O)NCc3ccco3)cc2)n1              3
2       COc1ccc(S(=O)(=O)NCCOc2ccccc2)cc1OC              0
3   CON(C)c1nc(Oc2ccc(=O)[nH]n2)nc(N(C)C)n1              1
4         CCCn1c(SCC(=O)NC(C)(C)C)nnc1C(C)C              3

Here's the next entry for you.
Query :: For Pantothenate synthetase (Mycobacterium tuberculosis (strain ATCC 25618 / H37Rv)), give the measured inhibition of the entry N#CC1=C(N)n2c(s/c(=C\c3ccco3)c2=O)=C(C#N)C1c1ccco1 (centres undefined)
Result :: 0

* * *

# experiment: MRP1 drug-resistance reversers in H69AR cells – cell-based, doxorubicin co-treatment, pilot screen (AID 601)
# appliedConditions: H69AR cells + 2 uM doxorubicin, CellTiter-Glo, 72 h; measured here: viability with 2 uM doxorubicin; at 10 µM; stronger effect = lower value
Listed next: entries and their corresponding viability.
Give the number first and the unit second.

Past entries and their recorded results:
>>> print(df.to_string())
                                   compound  observedvalue
0  O=C(Cn1cc(C(=O)c2ccccc2)c2ccccc21)NCc1ccco1          69.8%
1    O=c1[nH]c(=O)n(Cc2ccccc2)c(O)c1C=NCCCO          89.9%
2                  Cc1[nH]c2c(Cl)cccc2c1CCN          83.1%
3  Cc1ccc(C(=O)C2CN3CCC2CC3)cc1 (stereo not given)          93.3%
4  CCC(=NCCCN1CCOCC1)c1c(O)n(Cc2ccccc2)c(=O)[nH]c1=O          90.7%

Kindly consider the entry below.
Query :: Give reported viability value for CCn1c(C)c(C(=O)O)c2cc(OC)ccc21
Result :: 101%

* * *

# testedTarget: Pantothenate synthetase (Mycobacterium tuberculosis (strain ATCC 25618 / H37Rv))
# experiment: Coupled enzyme confirmation of inhibitors against recombinant Mtb PanC (AID 375);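 further: 0% = full reaction with vehicle and 100% = no enzyme background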
# appliedConditions: coupled enzyme assay; at 10 µM, stronger effect = higher value
Listed compounds paired with reported inhibition
Report the figure in % without appending any unit label.

              compoundstructurestring  outputunit  observedvalue
0      CC(=O)Nc1ccc(-c2nn[nH]n2)cc1Cl           %              0
1  CCOC(=O)c1ccc(NC(=O)CSc2ncccn2)cc1           %              6

Query :: Item Clc1ccc(Cl)c(-c2nn3c(Cn4cnc5ccccc54)nnc3s2)c1 : provide inhibition
Result :: 0

Query :: Specify reported inhibition for the compound shown: CN(C(=O)c1ccc2c(=O)n3c(nc2c1)CCCCC3)c1ccccc1
Result :: 4

Query :: In one line, give reported inhibition of the entry O=C(Cn1nnc(-c2cccs2)n1)OC1CCCCC1 .
Result :: 4

Query :: Please report inhibition for the following compound: O=C(Nc1cccc(NC(=O)c2ccco2)c1)c1ccc2c(c1)OCO2
Result :: 0

* * *

# testedTarget: Pantothenate synthetase (Mycobacterium tuberculosis (strain ATCC 25618 / H37Rv)) (UniProt P9WIL5)
# Sequence (P9WIL5 whole entry, looked up): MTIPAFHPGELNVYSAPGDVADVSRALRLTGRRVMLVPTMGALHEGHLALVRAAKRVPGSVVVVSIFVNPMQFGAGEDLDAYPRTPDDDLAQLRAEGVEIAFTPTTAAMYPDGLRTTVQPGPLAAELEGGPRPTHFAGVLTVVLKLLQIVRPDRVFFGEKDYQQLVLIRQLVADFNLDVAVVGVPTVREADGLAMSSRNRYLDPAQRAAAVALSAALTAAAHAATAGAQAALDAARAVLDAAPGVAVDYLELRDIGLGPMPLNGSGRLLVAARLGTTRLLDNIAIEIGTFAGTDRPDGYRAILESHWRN
# experiment: Coupled enzyme confirmation of inhibitors against recombinant Mtb PanC (AID 375);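 further: 0% = full reaction with vehicle and 100% = no enzyme background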
# appliedConditions: coupled enzyme assay; at 10 µM, stronger effect = higher value
Assign class by inhibition: not lower than 3% means Satisfied; lower than 3% means Not satisfied.

Query :: Check the entry C=C(C)Cn1c(SCC)nc2ccccc2c1=O : does inhibition equal or exceed 3%?
Result :: Satisfied

Query :: Does the molecule CCn1cc(C(=O)NC2CCc3ccccc32)c(=O)c2ccc(C)nc21 (configuration not stated) have recorded inhibition that is 3% or more?
Result :: Not satisfied

Query :: Does the reported inhibition for Cc1nc(SCC(=O)Nc2cc(C)on2)c2c3c(sc2n1)CCCC3 fall at or above the 3% mark?
Result :: Satisfied

* * *

# testedTarget: Pantothenate synthetase (Mycobacterium tuberculosis (strain ATCC 25618 / H37Rv)) (UniProt P9WIL5)
# experiment: Coupled enzyme confirmation of inhibitors against recombinant Mtb PanC (AID 375);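 further: 0% = full reaction with vehicle and 100% = no enzyme background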
# appliedConditions: coupled enzyme assay; at 10 µM, stronger effect = higher value
endpoint: inhibition (%)
Record the value in %, omitting the unit from your answer.

                                   molecule  outputunit  observedvalue
0      CCNC(=O)c1ccc(NS(=O)(=O)c2ccccc2)cc1           %              6
1  COc1ccc(C(=O)N2CCN(c3nc4cc(C)ccc4cc3C#N)CC2)c(OC)c1           %              0
2  CCc1cccc(NC(=O)C2CCCN(S(=O)(=O)c3c(C)[nH]c(=O)[nH]c3=O)C2)c1 (stereo not given)           %              4
3  C[C@@H]1C[C@H]2[C@@H]3C[C@H](F)C4=CC(=O)C=C[C@]4(C)[C@@]3(F)[C@@H](O)C[C@]2(C)[C@@]1(O)C(=O)COC(=O)C(C)(C)C           %              0
4  COc1ccccc1N1CCN(c2nc3ccccc3nc2C(C#N)C(=O)OC(C)C)CC1 (stereo not given)           %              1

Query :: For the molecule O=C(NCCC1=CCCCC1)c1cc2c(s1)CS(=O)(=O)C2 , give its reported inhibition.
Result :: 1

Query :: Note inhibition for the molecule shown: Cc1[nH]c(=O)[nH]c(=O)c1S(=O)(=O)N(C)Cc1ccccc1
Result :: 0

Query :: Give the reported value of inhibition for this record: CCN(C(=O)COC(=O)c1cc(C)n(-c2ccc(F)cc2)c1C)C1CCS(=O)(=O)C1 (stereo not given)
Result :: 1

Query :: Output inhibition of O=C(Cn1nnc(-c2ccc(S(=O)(=O)N3CCCC3)cc2)n1)NCC1CCCO1 (stereo not given)
Result :: 0

Query :: Entry CCOC(=O)c1ccc(NC(=O)COc2ccc(-n3cnnn3)cc2)cc1 needs its inhibition filled in; supply it.
Result :: 0
